Source listed as paper PMC10141580.

# System: panel of 140 standard cancer cell lines
# assay_comment: ProliFiler-140 cancer cell line screen (CellTiterGlo, 72 h)
# Assay type: cell-based
# condition_info: MDA-MB-468; read-out: IC50
property_name: IC50 (nM)
Answers are plain numbers, in nM.

Quick one: IC50 of `COc1cc2cc(C(=O)N3C[C@@H](CCl)c4c3cc(OC(=O)N(CCC(=O)N3CCN(C)CC3)[C@H]3CCSSC3)c3ccccc43)[nH]c2c(OC)c1OC` ?
31

====

# System: NCI-60 standardized human tumor cell line panel
# assay_comment: cells
# Type: cell-based
# condition_info: 786-0; AZI sheet; read-out: GI50
Would you mind telling me the reported GI50 of each entry?
Please answer in the form of a number followed by its unit of measurement.

1. CN1CCN(C(=O)Oc2cc3c(c4ccccc24)C(CCl)CN3C(=O)c2cc3cc(OCCCN4CCC4)ccc3[nH]2)C2CSSCC21 (mixture of isomers) [Me-SS66T-CBI-AZI] :: 13 nM
2. O=C(c1cc2cc(OCCCN3CCC3)ccc2[nH]1)N1C[C@@H](CCl)c2c1cc(OCc1ccccc1)c1ccccc21 [OBn-CBI-AZI] :: 270 nM
3. CN1CCN(C(=O)Oc2cc3c(c4ccccc24)C(CCl)CN3C(=O)c2cc3cc(OCCCN4CCC4)ccc3[nH]2)C2CSSCC21 (mixture of isomers) [Me-SS66C-CBI-AZI] :: 8.8 nM
4. CN(CCSSCCN1CCOCC1)C(=O)Oc1cc2c(c3ccccc13)[C@H](CCl)CN2C(=O)c1cc2cc(OCCCN3CCC3)ccc2[nH]1 [SS00M-CBI-AZI] :: 32 nM

Please examine the following record next.
Quick one: GI50 of CN1CCN(C(=O)CCN(C(=O)Oc2cc3c(c4ccccc24)[C@H](CCl)CN3C(=O)c2cc3cc(OCCCN4CCC4)ccc3[nH]2)[C@H]2CCSSC2)CC1 [P-SS60-CBI-AZI] ?
330 nM

====

# System: panel of 140 standard cancer cell lines
# assay_comment: ProliFiler-140 cancer cell line screen (CellTiterGlo, 72 h)
# Type: cell-based
# condition_info: Homo sapiens, EPLC-272H, EPLC-272H (Lung); read-out: IC50 [M] (ProliFiler-140)
property_name: IC50 (M)
One number for each entry, in M.

Quick one: IC50 of COc1cccc2c1C(=O)c1c(O)c3c(c(O)c1C2=O)C[C@@](O)(C(=O)CO)C[C@@H]3O[C@H]1C[C@H](N)[C@H](O)[C@H](C)O1 [doxorubicin, reference compound] ?
1.97e-07

====

# System: panel of 140 standard cancer cell lines
# assay_comment: ProliFiler-140 cancer cell line screen (CellTiterGlo, 72 h)
# Assay type: cell-based
# condition_info: Homo sapiens, KATO III, Kato III (Stomach); read-out: IC50 [M] (ProliFiler-140)
property_name: IC50 (M)
Answers are plain numbers, in M.

Lab note: need IC50 for COc1cccc2c1C(=O)c1c(O)c3c(c(O)c1C2=O)C[C@@](O)(C(=O)CO)C[C@@H]3O[C@H]1C[C@H](N)[C@H](O)[C@H](C)O1 [doxorubicin, reference compound] on panel of 140 standard cancer cell lines, anyone have it?
9e-07

====

# System: panel of 140 standard cancer cell lines
# assay_comment: ProliFiler-140 cancer cell line screen (CellTiterGlo, 72 h)
# Type: cell-based
# condition_info: P31/FUJ (Blood); listed as Dox; read-out: IC50 [M] (ProliFiler-140)
property_name: IC50 (M)
Give bare numbers, in M.

Lab note: need IC50 for COc1cccc2c1C(=O)c1c(O)c3c(c(O)c1C2=O)C[C@@](O)(C(=O)CO)C[C@@H]3O[C@H]1C[C@H](N)[C@H](O)[C@H](C)O1 [doxorubicin, reference compound] on panel of 140 standard cancer cell lines, anyone have it?
1.02e-07

====

# Test system: panel of 140 standard cancer cell lines
# assay_comment: ProliFiler-140 cancer cell line screen (CellTiterGlo, 72 h)
# Assay type: cell-based
# condition_info: Hep3B2.1-7 (Liver); read-out: IC50 [M] (ProliFiler-140)
property_name: IC50
Please answer in the form of a number followed by its unit of measurement.

Quick one: IC50 of COc1cccc2c1C(=O)c1c(O)c3c(c(O)c1C2=O)C[C@@](O)(C(=O)CO)C[C@@H]3O[C@H]1C[C@H](N)[C@H](O)[C@H](C)O1 [doxorubicin, reference compound] ?
5.3e-07 M

====

# Test system: panel of 140 standard cancer cell lines
# assay_comment: ProliFiler-140 cancer cell line screen (CellTiterGlo, 72 h)
# Format: cell-based
# condition_info: Homo sapiens, A2780, read-out: IC50 [M] (ProliFiler-140), A2780 (Ovary)
property_name: IC50 (M)
One number for each entry, in M.

Quick one: IC50 of COc1cc2cc(C(=O)N3C[C@@H](CCl)c4c3cc(OC(=O)N3CCN(C(=O)CCC(=O)N5CCN(C)CC5)[C@H]5CSSC[C@H]53)c3ccccc43)[nH]c2c(OC)c1OC [P-SS66C-CBI-TMI] ?
8.1e-09

====

# System: NCI-60 standardized human tumor cell line panel
# assay_comment: cells
# Type: cell-based
# condition_info: cell line HCC-2998 (CO:HCC-2998); TMI sheet
Would you mind telling me the reported NCI-60 screening: Log(RedIndex) of each entry?

The following compounds have reported results that may help.
1) COc1cc2cc(C(=O)N3CC(CCl)c4c3cc(OC(=O)N3CCN(C)C5CSSCC53)c3ccccc43)[nH]c2c(OC)c1OC (mixture of isomers) [Me-SS66T-CBI-TMI] :: 1.99
2) COc1cc2cc(C(=O)N3C[C@@H](CCl)c4c3cc(OC(=O)N(CCC(=O)N3CCN(C)CC3)[C@H]3CCSSC3)c3ccccc43)[nH]c2c(OC)c1OC [P-SS60-CBI-TMI] :: 0.98
3) COc1cc2cc(C(=O)N3C[C@@H](CCl)c4c3cc(OC(=O)N3CCN(C(=O)CCC(=O)N5CCN(C)CC5)[C@H]5CSSC[C@H]53)c3ccccc43)[nH]c2c(OC)c1OC [P-SS66C-CBI-TMI] :: 1.45

Please examine the following record next.
Lab note: need NCI-60 screening: Log(RedIndex) for COc1cc2cc(C(=O)N3CC(CCl)c4c3cc(OC(=O)N3CCN(C)C5CSSCC53)c3ccccc43)[nH]c2c(OC)c1OC (mixture of isomers) [Me-SS66C-CBI-TMI] on NCI-60 standardized human tumor cell line panel, anyone have it?
1.02

====

# Tested on: panel of 140 standard cancer cell lines
# assay_comment: ProliFiler-140 cancer cell line screen (CellTiterGlo, 72 h)
# Assay type: cell-based
# condition_info: read-out: IC50 [M] (ProliFiler-140); MOLM-13 (Blood)
property_name: IC50 (M)
Answers are plain numbers, in M.

Quick one: IC50 of COc1cc2cc(C(=O)N3C[C@@H](CCl)c4c3cc(OC(=O)N3CCN(C(=O)CCC(=O)N5CCN(C)CC5)[C@H]5CSSC[C@H]53)c3ccccc43)[nH]c2c(OC)c1OC [P-SS66C-CBI-TMI] ?
5.25e-09

====

# Test system: panel of 140 standard cancer cell lines
# assay_comment: ProliFiler-140 cancer cell line screen (CellTiterGlo, 72 h)
# Type: cell-based
# condition_info: read-out: IC50 [M] (ProliFiler-140); H2228 (Lung)
property_name: IC50 (M)
Give bare numbers, in M.

Quick one: IC50 of COc1cc2cc(C(=O)N3C[C@@H](CCl)c4c3cc(OC(=O)N3CCN(C(=O)CCC(=O)N5CCN(C)CC5)[C@H]5CSSC[C@H]53)c3ccccc43)[nH]c2c(OC)c1OC [P-SS66C-CBI-TMI] ?
4.5e-08

====

# System: panel of 140 standard cancer cell lines
# assay_comment: ProliFiler-140 cancer cell line screen (CellTiterGlo, 72 h)
# Assay type: cell-based
# condition_info: Homo sapiens, A498, A498; read-out: IC50
property_name: IC50

Quick one: IC50 of COc1cccc2c1C(=O)c1c(O)c3c(c(O)c1C2=O)C[C@@](O)(C(=O)CO)C[C@@H]3O[C@H]1C[C@H](N)[C@H](O)[C@H](C)O1 [doxorubicin, reference compound] ?
320 nM

====

# Test system: NCI-60 standardized human tumor cell line panel
# assay_comment: cells
# Assay type: cell-based
# condition_info: cell line HT29 (CO:HT29); TMI sheet; read-out: NCI-60 screening: Raw GI50
Would you mind telling me the reported GI50 of each entry?
Give bare numbers, in nM.

The following compounds have reported results that may help.
1. COc1cc2cc(C(=O)N3CC(CCl)c4c3cc(OC(=O)N3CCN(C)C5CSSCC53)c3ccccc43)[nH]c2c(OC)c1OC (mixture of isomers) [Me-SS66T-CBI-TMI] :: 34
2. COc1cc2cc(C(=O)N3CC(CCl)c4c3cc(OC(=O)N3CCN(C)C5CSSCC53)c3ccccc43)[nH]c2c(OC)c1OC (mixture of isomers) [Me-SS66C-CBI-TMI] :: 230
3. COc1cc2cc(C(=O)N3C[C@@H](CCl)c4c3cc(OC(=O)N(CCC(=O)N3CCN(C)CC3)C3CCCCC3)c3ccccc43)[nH]c2c(OC)c1OC :: 1500

Please examine the following record next.
Quick one: GI50 of `COc1cc2cc(C(=O)N3C[C@@H](CCl)c4c3cc(OC(=O)N(CCC(=O)N3CCN(C)CC3)[C@H]3CCSSC3)c3ccccc43)[nH]c2c(OC)c1OC` ?
270
